Target: Dimer of Gag-Pol polyprotein [489-587,I539V] (Human immunodeficiency virus 1, UniProt P04585, I539V)
Construct: 489-587
Experiment: GW0385 Assay
Settings: pH 5.5; 30 °C
reported.endpoint: pKi
Please note pKi is a logarithmic value: minus log10 of concentration in mol/L. Answer with that number alone.

[Q] So what's the measured pKi for this one? Cc1nc(COc2ccc(C[C@H](NC(=O)O[C@H]3CO[C@H]4OCC[C@H]43)[C@H](O)CN(CC(C)C)S(=O)(=O)c3ccc4c(c3)OCO4)cc2)cs1 [[3H]GW0385]
[A] 11.70

Where do the numbers come from? From BindingDB's records for doi:10.1021/bi0488799.
